target: Angiotensin-converting enzyme (Oryctolagus cuniculus); assay: Tested for 50% inhibition of Angiotensin converting enzyme(ACE) obtained from rabbit lung (in vitro)
Sequence (P12822 whole entry): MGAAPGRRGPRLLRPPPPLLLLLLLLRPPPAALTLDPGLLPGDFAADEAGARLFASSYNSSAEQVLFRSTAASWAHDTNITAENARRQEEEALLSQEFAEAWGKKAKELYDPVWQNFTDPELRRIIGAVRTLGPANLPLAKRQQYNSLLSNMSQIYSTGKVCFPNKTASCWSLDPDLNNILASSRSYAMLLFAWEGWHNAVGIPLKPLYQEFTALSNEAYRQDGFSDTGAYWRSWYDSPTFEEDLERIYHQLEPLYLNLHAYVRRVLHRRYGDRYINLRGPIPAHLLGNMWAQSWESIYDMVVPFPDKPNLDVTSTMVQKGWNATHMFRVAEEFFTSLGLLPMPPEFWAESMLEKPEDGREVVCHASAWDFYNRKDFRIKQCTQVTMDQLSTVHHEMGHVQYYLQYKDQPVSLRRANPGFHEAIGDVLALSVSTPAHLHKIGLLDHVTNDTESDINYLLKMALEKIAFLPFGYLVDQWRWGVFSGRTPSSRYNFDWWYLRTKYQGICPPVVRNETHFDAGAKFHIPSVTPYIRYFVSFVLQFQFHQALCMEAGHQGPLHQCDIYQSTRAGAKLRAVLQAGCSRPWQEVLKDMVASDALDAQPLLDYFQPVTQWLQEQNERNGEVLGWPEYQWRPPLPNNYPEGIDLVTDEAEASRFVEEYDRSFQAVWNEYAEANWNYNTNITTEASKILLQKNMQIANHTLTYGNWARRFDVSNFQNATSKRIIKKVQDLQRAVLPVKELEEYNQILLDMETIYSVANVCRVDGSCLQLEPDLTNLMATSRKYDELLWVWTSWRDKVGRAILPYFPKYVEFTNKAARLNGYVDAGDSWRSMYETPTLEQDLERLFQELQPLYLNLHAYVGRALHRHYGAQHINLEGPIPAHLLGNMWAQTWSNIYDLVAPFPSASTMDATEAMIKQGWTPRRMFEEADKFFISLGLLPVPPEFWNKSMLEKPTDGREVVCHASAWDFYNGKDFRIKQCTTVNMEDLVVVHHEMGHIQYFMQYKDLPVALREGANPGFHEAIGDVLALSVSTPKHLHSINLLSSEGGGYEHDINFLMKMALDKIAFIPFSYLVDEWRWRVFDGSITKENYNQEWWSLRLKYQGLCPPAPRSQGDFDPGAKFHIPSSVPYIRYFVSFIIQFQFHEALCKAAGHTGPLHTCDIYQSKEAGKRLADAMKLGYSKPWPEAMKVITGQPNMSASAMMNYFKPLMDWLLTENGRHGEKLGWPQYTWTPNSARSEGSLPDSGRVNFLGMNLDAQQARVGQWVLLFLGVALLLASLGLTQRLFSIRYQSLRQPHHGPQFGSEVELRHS
property measured: pIC50
# pIC50 is unitless: minus log10 of the molar concentration; print number only

Sample answers from the record:
>>> print(df.to_string())
                                   molecule                           target_of_assay  property_measured  assay_result
0  Cn1c(-c2cccnc2)c(CCCCCC(=O)NCCNCCCC[C@H](N[C@H]2CCc3ccccc3N(CC(=O)[O-])C2=O)C(=O)[O-])c2cc(Cl)ccc21.[K+].[K+]  Angiotensin-converting enzyme (Oryctolagus cuniculus)              pIC50          8.40
1  Cn1c(-c2cccnc2)c(CCCCCC(=O)N2CCC(NCCCC[C@H](N[C@@H]3CCc4ccccc4N(CC(=O)[O-])C3=O)C(=O)[O-])CC2)c2cc(Cl)ccc21.[Na+].[Na+]  Angiotensin-converting enzyme (Oryctolagus cuniculus)              pIC50          7.92

[ask] Reported pIC50 for `CCOC(=O)[C@H](CCc1ccccc1)N[C@H]1CCc2ccccc2N(CC(=O)O)C1=O` : what is it?
[reply] 8.70

[ask] Please report the recorded pIC50 for O=C([O-])CN1C(=O)C(OP(=O)([O-])CCCCc2ccccc2)CCc2ccccc21.[Na+].[Na+] (centres undefined) .
[reply] 7.70
